Reference source: the supplement of paper PMC11208160

# METHOD_SUMMARY: recombinant barcode read abundance after kanamycin selection (control-corrected) (log10(CPM+1)); higher = more efficient recombination; sequences stand for … in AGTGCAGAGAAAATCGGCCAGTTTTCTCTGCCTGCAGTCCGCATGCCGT…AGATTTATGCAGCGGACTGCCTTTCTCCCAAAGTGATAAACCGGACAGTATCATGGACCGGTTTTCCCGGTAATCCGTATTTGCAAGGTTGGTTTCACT; site = the 11-nt target
ASSAY_ENDPOINT: recombinant barcode read abundance (log10)

| SEQUENCE_CHAIN | QUANTITATIVE_READOUT |
| --- | --- |
| GTTTATACTTGGGTTCTAACCTGTTGCCA (site AGAGTAGCTGT) | 0.0898 |
| CGGAAGGCTTGGGTTCTAACCTGTTGCCT (site CGGAAGACTAG) | 0.036 |
| ACTTGTTCTTGGGTTCTAACCTGTTGCCT (site CCTTGTTCTAG) | 0.202 |
| CCACGGCCTTGGGTTCTAACCTGTTGCAT (site CCTCGGCCTAT) | 0 |
| TCTGCGACTTGGGTTCTAACCTGTTGCCT (site TCGGCGACTAG) | 0.114 |
| GTAAGGACTTGGGTTCTAACCTGTTGCGG (site CAGTCAGCTAG) | 0.115 |
| ACCTGTCCTTGGGTTCTAACCTGTTGCCT (site ACCTGCCCTAG) | 0.0321 |
| TGAATGACTTGGGTTCTAACCTGTTGCCT (site TGAATGACTAG) | 0.544 |
| CATAGACCTTGGGTTCTAACCTGTTGCAT (site CATAGACCTAT) | 1.82 |
| GTTGGTCCTTGGGTTCTAACCTGTTGCCT (site GTGGTTCCTAG) | 0.114 |
| TCCAAGGCTTGGGTTCTAACCTGTTGCCT (site TCGAAGGCTAG) | 0.147 |
| ATCAGGTCTTGGGTTCTAACCTGTTGCCT (site ATCAGGTCTAG) | 0.431 |
| CTCGGATCTTGGGTTCTAACCTGTTGCTG (site CTCGGATCTAA) | 0.296 |
| AACAGTACTTGGGTTCTAACCTGTTGCCT (site CACAGTACTAG) | 0.406 |
| AGTTAGCCTTGGGTTCTAACCTGTTGCCT (site AGTAAGCCTAG) | 0.107 |
| CGATCATCTTGGGTTCTAACCTGTTGCCT (site CGATCATCTAG) | 0.103 |
| GTGATGTCTTGGGTTCTAACCTGTTGCCT (site GCGATGTCTAG) | 0.321 |
| CAGAGCACTTGGGTTCTAACCTGTTGCCT (site CAGAGCACTAG) | 1.2 |
| TACATTCCTTGGGTTCTAACCTGTTGCCT (site TACATTCCTAG) | 0.156 |
| GCATCTCCTTGGGTTCTAACCTGTTGCCT (site TCATCTCCTAG) | 0.0491 |
| AAGACTCCTTGGGTTCTAACCTGTTGCTT (site AACACTCCTAA) | 0.287 |

----------
In this section, each of the sequences is paired with its reported recombinant UMI read abundance (log10).
# METHOD_SUMMARY: recombinant UMI read abundance after kanamycin selection (control-corrected) (log10(CPM+1)); higher = more efficient recombination; extreme values may be limits of the assay; sequences stand for … in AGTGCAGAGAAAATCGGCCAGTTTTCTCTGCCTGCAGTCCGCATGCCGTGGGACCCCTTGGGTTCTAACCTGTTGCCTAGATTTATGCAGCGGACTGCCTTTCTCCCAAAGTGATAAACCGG…AGGTTGGTTTCACT; site = the 11-nt donor

| SEQUENCE_CHAIN | recombinant UMI read abundance (log10) |
| --- | --- |
| GCTACTGCATGGACCGGTTTTCCCGGTAATCCGTATTTGCC (site GCTACTGCTGC) | 0 |
| GGGAAGACATGGACCGGTTTTCCCGGTAATCCGTATTTGCT (site AGGAAGACTTG) | 0 |
| CAAATCCCATGGACCGGTTTTCCCGGTAATCCGTATTTGCT (site CAACTCCCTAG) | 0.00602 |
| ATTCGTCCATGGACCGGTTTTCCCGGTAATCCGTATTTGGT (site ATTCGTCCTAC) | 0.0259 |
| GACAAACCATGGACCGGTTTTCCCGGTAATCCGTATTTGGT (site GACGAACCTAC) | 0 |
| CACTTCTCATGGACCGGTTTTCCCGGTAATCCGTATTTGGG (site CACTTCTCTCC) | 0.00463 |
| GGTTCCCCATGGACCGGTTTTCCCGGTAATCCGTATTTGTA (site GGTTCCCCTTA) | 0.0107 |
| CCGCACACATGGACCGGTTTTCCCGGTAATCCGTATTTGTA (site CCGCACACTTA) | 0.895 |
| CGTTTGGCATGGACCGGTTTTCCCGGTAATCCGTATTTGCG (site CGTTTGGCTAG) | 0 |
| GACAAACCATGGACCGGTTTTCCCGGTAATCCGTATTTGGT (site GACAAACCTGC) | 0 |
| GCACGTGCATGGACCGGTTTTCCCGGTAATCCGTATTTGGC (site GCACGTGCTGC) | 2.23 |
| TAATGAGCATGGACCGGTTTTCCCGGTAATCCGTATTTGGG (site TAATGACCTCC) | 0.00784 |
| CAAGGTGCATGGACCGGTTTTCCCGGTAATCCGTATTTGAT (site CTAGGTGCTAT) | 1.67 |
| ACGTAGACATGGACCGGTTTTCCCGGTAATCCGTATTTGGG (site ACGTAGACTCC) | 0.4 |
| CCAGGTCCATGGACCGGTTTTCCCGGTAATCCGTATTTGCA (site CCAGGTCCTTG) | 0.421 |
| CGTTGGGCATGGACCGGTTTTCCCGGTAATCCGTATTTGCT (site CGTTTGGCTAG) | 0 |
| AAACACGCATGGACCGGTTTTCCCGGTAATCCGTATTTGGG (site AAGCACGCTCC) | 0.0101 |
| AATAGTGCATGGACCGGTTTTCCCGGTAATCCGTATTTGGT (site ACTAGTGCTAC) | 0.687 |

----------
# METHOD_SUMMARY: recombinant barcode read abundance after kanamycin selection (control-corrected) (log10(CPM+1)); higher = more efficient recombination; sequences stand for … in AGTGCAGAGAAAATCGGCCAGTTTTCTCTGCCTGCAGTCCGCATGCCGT…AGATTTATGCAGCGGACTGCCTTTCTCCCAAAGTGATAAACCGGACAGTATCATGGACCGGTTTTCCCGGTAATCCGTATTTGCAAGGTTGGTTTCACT; site = the 11-nt target
ASSAY_ENDPOINT: recombinant barcode read abundance (log10)

| SEQUENCE_CHAIN | QUANTITATIVE_READOUT |
| --- | --- |
| AATACTACTTGGGTTCTAACCTGTTGCCT (site ACTACTACTAG) | 0.0229 |
| TGGTAACCTTGGGTTCTAACCTGTTGCCT (site AGGTAACCTAG) | 0.0194 |
| CGAAGCTCTTGGGTTCTAACCTGTTGCCT (site CGTAGCTCTAG) | 0.223 |
| AGTACCTCTTGGGTTCTAACCTGTTGCCT (site ACTACCTCTAG) | 0.283 |
| AAGAACACTTGGGTTCTAACCTGTTGCCT (site AAGAACACTAG) | 2.06 |

----------
# METHOD_SUMMARY: recombinant barcode read abundance after kanamycin selection (control-corrected) (log10(CPM+1)); higher = more efficient recombination; sequences stand for … in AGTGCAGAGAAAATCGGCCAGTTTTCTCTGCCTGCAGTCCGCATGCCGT…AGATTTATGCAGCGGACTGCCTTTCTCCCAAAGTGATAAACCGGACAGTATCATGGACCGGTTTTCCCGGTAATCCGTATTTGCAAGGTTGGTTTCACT; site = the 11-nt target
Tag: criterion met if measured recombinant barcode read abundance (log10) is not below 0.5, criterion not met if it is.

| SEQUENCE_CHAIN | DISCRETE_LABEL |
| --- | --- |
| CGTCAACCTTGGGTTCTAACCTGTTGCGT (site CGTTAACCTAC) | criterion not met |
| GGGCCCGCTTGGGTTCTAACCTGTTGCCT (site GGGCCTGCTAG) | criterion not met |
| TTACTAGCTTGGGTTCTAACCTGTTGCGT (site AGACTAGCTAC) | criterion not met |
| ATAAGCTCTTGGGTTCTAACCTGTTGCCT (site TTAAGCTCTAG) | criterion met |
| ATCGGAGCTTGGGTTCTAACCTGTTGCTG (site ATCGGAGCTCG) | criterion not met |
